systemUnderTest: T1, human B7-H4 expressed on cells (human, UniProt Q7Z7D3 25-282)
T1 construct: the cell line is named under assay or readout; also called full length human B7-H4 on HEK293 cells; 293T.hB7-H4
T1 sequence: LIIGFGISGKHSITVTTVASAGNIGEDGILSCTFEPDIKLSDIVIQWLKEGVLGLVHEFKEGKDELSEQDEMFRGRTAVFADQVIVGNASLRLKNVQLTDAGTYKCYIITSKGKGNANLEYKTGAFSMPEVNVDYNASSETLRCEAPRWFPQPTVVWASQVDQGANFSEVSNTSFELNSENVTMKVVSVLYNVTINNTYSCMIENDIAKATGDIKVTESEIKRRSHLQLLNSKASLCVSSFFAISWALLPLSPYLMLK
assay: flow cytometry on HEK293.hB7-H4 transfectants, one-site specific binding fit
Method: For each staining, 0.2 million HEK293.hB7-H4 transfectants were resuspended in 100 μl flow cytometry buffer (PBS+2% FBS). A serial dilution of chimeric 6H3 and 14 humanized variants of 0, 0.1 ng, 0.3 ng, 1 ng, 3 ng, 10 ng, 30 ng, 100 ng, 300 ng, 1 μg, 3 μg and 10 μg were added to the cells and incubated at 4° C. for 30 min. […] Flow Cytometry data was acquired using BD Canto (BD Biosciences) in plate format and analyzed by FlowJo software. […]
# Bmax(MFI) annotations
Write down the numeric answer in MFI and omit the unit.

| binder | valueReported |
| --- | --- |
| humanized 6H3 variant 5 (antibody, V domains shown, also called V5; Variant 5 (antibody)) VH: EVQLVQSGAEVKKPGASVKVSCKASGYTFTDYYMNWVRQAPGQGLEWIGIINPYNGDTSYNQKFKGRVTLTVDKSTSTAYMELSSLRSEDTAVYYCARYPESTYWGQGTLVTVSS VL: DVVMTQSPLSLPVTLGQPASISCRSSQSLVHINGNTYLHWYLQRPGQSPKVLIYKVSNRFSGVPDRFSGSGSGTDFTLKISRVEAEDVGVYFCSQSTHVPLTFGGGTKVEIK | 646 |
| humanized 6H3 variant 12 (antibody, V domains shown, also called V12; 6H3 V12) VH: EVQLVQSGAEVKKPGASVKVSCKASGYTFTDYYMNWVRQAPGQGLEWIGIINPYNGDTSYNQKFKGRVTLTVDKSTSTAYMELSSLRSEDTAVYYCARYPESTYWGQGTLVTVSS VL: DIVMTQTPLSLPVTLGQPASISCRSSQSLVHINGNTYLHWYLQRPGQSPKVLIYKVSNRFSGVPDRFSGSGSGTDFTLKISRVEAEDVGVYFCSQSTHVPLTFGAGTKVEIK | 597 |
| humanized 6H3 variant 10 (antibody, V domains shown, also called V10; H2B L2B) VH: EVQLVQSGAEMKKPGASVKVSCKASGYTFTDYYMNWVRQAPGQSLEWMGVINPYNGDTTYNQKFQGRVTVAVDKSATTAYMELSSLRSEDTAVYYCARYPESTYWGQGTLVTVSS VL: DIVMTQTPLSLPVTLGQPASISCRSSQSLVHINGNTYLHWYQQRPGQSPRVLIYKVSNRFSGVPDRFSGSGSGTDFTLKISRVEAEDVGVYFCSQSTHVPLTFGQGTKVEIK | 662 |
| humanized 6H3 variant 2 (antibody, V domains shown, also called V2; 6H3 V2) VH: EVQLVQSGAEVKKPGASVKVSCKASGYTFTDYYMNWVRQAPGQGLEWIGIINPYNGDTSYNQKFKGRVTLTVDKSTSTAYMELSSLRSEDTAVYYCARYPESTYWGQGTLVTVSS VL: DVVMTQSPLSLPVTLGQPASISCRSSQSLVHINGNTYLHWYQQRPGQSPRVLIYKVSNRFSGVPDRFSGSGSGTDFTLKISRVEAEDVGVYFCSQSTHVPLTFGGGTKVEIK | 603 |
| humanized 6H3 variant 11 (antibody, V domains shown, also called V11; H2C L2B) VH: EVQLVQSGAEMKKPGASVKVSCKASGYTFTDYYMNWVRQAPGQSLEWIGVINPYNGDTTYNQKFQGRVTVTVDKSATTAYMELSSLRSEDTAVYYCARYPESTYWGQGTLVTVSS VL: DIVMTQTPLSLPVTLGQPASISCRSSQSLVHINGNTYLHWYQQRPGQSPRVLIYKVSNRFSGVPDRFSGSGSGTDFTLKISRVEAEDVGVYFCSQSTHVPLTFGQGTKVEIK | 648 |
| humanized 6H3 variant 4 (antibody, V domains shown, also called V4; Variant 4 (antibody)) VH: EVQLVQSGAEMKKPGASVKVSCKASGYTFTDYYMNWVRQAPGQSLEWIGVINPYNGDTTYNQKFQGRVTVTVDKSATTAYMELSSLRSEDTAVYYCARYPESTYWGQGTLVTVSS VL: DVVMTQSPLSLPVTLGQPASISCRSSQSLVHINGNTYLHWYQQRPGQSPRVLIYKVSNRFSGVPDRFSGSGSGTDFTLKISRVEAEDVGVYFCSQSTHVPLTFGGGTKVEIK | 580 |
| chimeric 6H3 (antibody, V domains shown, Mouse variable regions with constant regions from the human IgG1 heavy chain and human kappa light chain; also called human chimeric 6H3; hc6H3) VH: EVQLQQSGPVLVKPGTSVKMSCKASGYTFTDYYMNWVKQSHGKSLEWIGVINPYNGDTTYNQKFKGKATLTVDKSSSTAYMEVNSLTFEDSAVYYCARYPESTYWGQGTLVTVSA VL: DVVMTQTPLSLPVSLGDQASISCRSSQSLVHINGNTYLHWYLQKPGQSPKVLIYKVSNRFSGVPDRFSGSGSGTDFTLKISRVEAEDLGVYFCSQSTHVPLTFGAGTKLELK | 316 |

Inquiry: Look at this binder and give its reported Bmax(MFI). humanized 6H3 variant 14 (antibody, V domains shown, also called V14; 6H3 V14) VH: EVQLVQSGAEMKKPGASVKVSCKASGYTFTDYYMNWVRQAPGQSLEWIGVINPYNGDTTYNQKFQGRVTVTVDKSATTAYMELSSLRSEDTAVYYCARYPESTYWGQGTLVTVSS VL: DIVMTQTPLSLPVTLGQPASISCRSSQSLVHINGNTYLHWYLQRPGQSPKVLIYKVSNRFSGVPDRFSGSGSGTDFTLKISRVEAEDVGVYFCSQSTHVPLTFGAGTKVEIK
Reply text: 629
